Field: pEC50. Provide a value for each of the compounds that follow.
Assay target: hMOR (CHO-hMOR cell membranes) (Homo sapiens)
Construct: host or cells: CHO cells expressing hMOR (purchased membranes)
Sequence (P35372 whole entry): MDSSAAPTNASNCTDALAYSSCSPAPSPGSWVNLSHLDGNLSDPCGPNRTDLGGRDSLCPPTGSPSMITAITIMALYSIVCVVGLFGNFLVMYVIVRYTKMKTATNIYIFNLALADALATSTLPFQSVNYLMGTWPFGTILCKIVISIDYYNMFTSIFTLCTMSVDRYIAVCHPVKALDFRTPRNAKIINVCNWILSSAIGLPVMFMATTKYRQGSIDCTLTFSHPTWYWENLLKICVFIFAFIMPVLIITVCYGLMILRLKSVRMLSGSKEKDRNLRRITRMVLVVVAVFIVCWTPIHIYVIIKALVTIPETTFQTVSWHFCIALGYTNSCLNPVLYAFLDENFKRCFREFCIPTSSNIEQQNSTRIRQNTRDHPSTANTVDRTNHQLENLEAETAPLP
Test name: [35S]GTPγS binding assay in CHO-hMOR cell membranes
Format: biochemical
Condition set: CHO-hMOR cell membranes; read-out: mu GTPγS binding EC50
Would you please state pEC50, meaning minus log10 of the concentration in mol/L, as a bare number?

Problem: // lookup pEC50 | system=hMOR (CHO-hMOR cell membranes) (Homo sapiens) | key= Oc1cccc2c1Oc1ccccc1C2=C1CC2CCC(C1)N2Cc1ncc[nH]1
Result: 5.79

Problem: For hMOR (CHO-hMOR cell membranes) (Homo sapiens), provide pEC50 of Oc1cc(CN2C3CCC2CC(=C2c4ccccc4Oc4c(O)cccc42)C3)ccn1 please.
Result: 4.91

Problem: Checklist item: pEC50 tested on hMOR (CHO-hMOR cell membranes) (Homo sapiens), entry Oc1cccc2c1Oc1ccccc1C2=C1CC2CCC(C1)N2Cc1cccnc1 , value?
Result: 5.09

Problem: Missing value: pEC50, hMOR (CHO-hMOR cell membranes) (Homo sapiens), entry NC(=O)c1cccc2c1Oc1ccccc1C2=C1CC2CCC(C1)N2Cc1ccoc1 . Fill in?
Result: 5.39

###

Assay target: delta opioid receptor (NG108-15 cell membranes) (Mus musculus, UniProt P32300)
Construct: NG108-15 cell membranes were purchased from Applied Cell Sciences (Rockville, Md.); host or cells: NG108-15 cell membranes (purchased)
Sequence (P32300 whole entry): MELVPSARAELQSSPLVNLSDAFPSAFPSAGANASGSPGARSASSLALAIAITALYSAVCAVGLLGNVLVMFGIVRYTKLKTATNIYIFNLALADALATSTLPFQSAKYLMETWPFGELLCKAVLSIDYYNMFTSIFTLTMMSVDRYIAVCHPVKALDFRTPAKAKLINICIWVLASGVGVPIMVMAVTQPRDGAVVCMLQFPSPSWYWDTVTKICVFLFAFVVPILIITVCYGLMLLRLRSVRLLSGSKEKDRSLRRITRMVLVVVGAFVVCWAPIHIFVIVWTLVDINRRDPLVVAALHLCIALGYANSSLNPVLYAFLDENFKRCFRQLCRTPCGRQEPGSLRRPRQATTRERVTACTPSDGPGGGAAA
Test name: [35S]GTPγS binding assay in NG108-15 cell membranes (delta opioid)
Assay type: biochemical
Condition set: value in parentheses
Procedure: Functional Assay: [^35S]GTPγS Binding Assay in NG108-15 Cell Membranes (Delta Opioid) Methods: NG108-15 cell membranes were purchased from Applied Cell Sciences (Rockville, Md.). […] Incubation procedure: The pellet membranes (75 μg/mL) were preincubated with SPA (10 mg/mL) at 25° C. for 45 min in the assay buffer. […] The data were analyzed on a Packard Top Count. […] EC50 values were calculated using GraphPad Prism.
Recorded metric: delta GTPγS binding Rel Eff
Lab note: jot the number down without any unit.

Problem: Recorded delta GTPγS binding Rel Eff for O=C(NCCc1ccccc1)c1cccc2c1Oc1ccccc1C2=C1CC2CCC(C1)N2 [Cpd 14] with delta opioid receptor (NG108-15 cell membranes) (Mus musculus, UniProt P32300), please?
Result: 0.92

Problem: Record O=C(NCc1ccccc1)c1cccc2c1Oc1ccccc1C2=C1CC2CCC(C1)N2 [Cpd 13] : what is its delta GTPγS binding Rel Eff with delta opioid receptor (NG108-15 cell membranes) (Mus musculus, UniProt P32300)?
Result: 0.87

Problem: Field: delta GTPγS binding Rel Eff (delta opioid receptor (NG108-15 cell membranes) (Mus musculus, UniProt P32300)). Entry: O=C(Nc1ccccc1)c1cccc2c1Oc1ccccc1C2=C1CC2CCC(C1)N2 [Cpd 12]
Result: 1.03

Problem: Please provide the recorded delta GTPγS binding Rel Eff for Oc1cccc2c1Oc1ccccc1C2=C1CC2CCC(C1)N2 (racemic) [Cpd 2] , tested on delta opioid receptor (NG108-15 cell membranes) (Mus musculus, UniProt P32300).
Result: 0.67

###

Could you please report measured Ki for the items listed next?
Assay target: delta opioid receptor (Rattus norvegicus)
Construct: the forebrains were homogenized in Tris buffer in a Teflon®-glass homogenizer; from tissue; host or cells: forebrain of male Wistar rats (particulate membrane preparation)
Test name: Rat brain delta opioid receptor binding assay
Condition set: rDOR (Ki, nM): Rat delta opioid receptor binding constant, rat forebrain membranes; [3H]DPDPE or [3H]naltrindole, 25° C., 2.5 h

Problem: Query (molecule): CN1C2CCCC1CC(=C1c3ccccc3Oc3c(O)cccc31)C2 ; field requested: Ki
Result: 132 nM

Problem: Suppose we examine the molecule Oc1cccc2c1Oc1ccccc1C2=C1CC2CCC(C1)N2Cc1ccoc1 (single isomer, unassigned) [Cpd 58] ; what Ki value has been reported?
Result: 0.1 nM

Problem: What Ki value was documented for this molecule, O=C(Nc1ccccc1)c1cccc2c1Oc1ccccc1C2=C1CC2CCC(C1)N2 (single isomer, unassigned) [Cpd 48] ?
Result: 3.71 nM

Problem: Recorded Ki of Oc1cccc2c1Oc1ccccc1C2=C1CC2CCC(C1)N2Cc1cccnc1 [Cpd 31] , please.
Result: 0.028 nM

Problem: Which measured Ki value corresponds to Oc1cccc2c1Oc1ccccc1C2=C1CC2CCC(C1)N2Cc1ccccn1 [Cpd 21] ?
Result: 0.007 nM

Problem: Which Ki is listed for Oc1cccc2c1Oc1ccccc1C2=C1CC2CCC(C1)N2Cc1ccoc1 [Cpd 25] ?
Result: 0.26 nM

Problem: Looking for the measured Ki of CN1C2CCC1CC(=C1c3ccccc3Oc3c(O)cccc31)C2 (single isomer, unassigned) [Cpd 51] , can you help?
Result: 11.2 nM

Problem: Look up Ki: Oc1cccc2c1Oc1ccccc1C2=C1CC2CCC(C1)N2Cc1cccnc1 (single isomer, unassigned) [Cpd 50]
Result: 0.08 nM

###

Assay target: delta opioid receptor (Rattus norvegicus, UniProt P33533)
Construct: the forebrains were homogenized in Tris buffer in a Teflon®-glass homogenizer; from tissue; host or cells: forebrain of male Wistar rats (particulate membrane preparation)
Sequence (P33533 whole entry): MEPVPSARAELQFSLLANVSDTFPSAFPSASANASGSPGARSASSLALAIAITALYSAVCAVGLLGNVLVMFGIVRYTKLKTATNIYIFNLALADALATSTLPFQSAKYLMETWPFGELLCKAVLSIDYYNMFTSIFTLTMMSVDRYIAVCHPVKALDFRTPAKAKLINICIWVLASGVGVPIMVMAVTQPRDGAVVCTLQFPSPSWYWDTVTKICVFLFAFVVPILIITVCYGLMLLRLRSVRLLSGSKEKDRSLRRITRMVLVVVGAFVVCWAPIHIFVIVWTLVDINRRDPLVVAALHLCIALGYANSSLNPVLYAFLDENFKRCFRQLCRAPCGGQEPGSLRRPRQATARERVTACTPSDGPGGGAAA
Test name: Rat brain delta opioid receptor binding assay
Condition set: rDOR (Ki, nM): Rat delta opioid receptor binding constant, rat forebrain membranes; [3H]DPDPE or [3H]naltrindole, 25° C., 2.5 h
For each record, write down the corresponding Ki.
Your answer is read as nM, so omit the unit and give the number.

Problem: Please tell me: Ki of Oc1cccc2c1Oc1ccccc1C2=C1CC2CCC(C1)N2Cc1ccccn1 (single isomer, unassigned) [Cpd 60] , system delta opioid receptor (Rattus norvegicus, UniProt P33533)?
Result: 0.01

Problem: Which measured Ki belongs to Oc1cccc2c1Oc1ccccc1C2=C1CC2CCC(C1)N2Cc1ccccc1 (single isomer, unassigned) [Cpd 46] , tested on delta opioid receptor (Rattus norvegicus, UniProt P33533)?
Result: 0.03

Problem: Form: Entry = NC(=O)c1cccc2c1Sc1ccccc1C2=C1CC2CCC(C1)N2 [Cpd 63] | System = delta opioid receptor (Rattus norvegicus, UniProt P33533) | Ki = ____
Result: 0.71

Problem: I'm curious: which Ki was measured for CN1C2CCC1CC(=C1c3ccccc3Oc3c(O)cccc31)C2 (single isomer, unassigned) [Cpd 52] tested on delta opioid receptor (Rattus norvegicus, UniProt P33533)?
Result: 323

Problem: Lab note: need Ki with delta opioid receptor (Rattus norvegicus, UniProt P33533) for entry c1ccc(Nc2cccc3c2Oc2ccccc2C3=C2CC3CCC(C2)N3)cc1 [Cpd 64] , please look it up.
Result: 862

Problem: Lab request: please report Ki under test system delta opioid receptor (Rattus norvegicus, UniProt P33533) for O=C(NCc1ccccc1)c1cccc2c1Oc1ccccc1C2=C1CC2CCC(C1)N2 (single isomer, unassigned) [Cpd 53]
Result: 1130

Problem: Checklist item: Ki tested on delta opioid receptor (Rattus norvegicus, UniProt P33533), entry CN(C)C(=O)c1cccc2c1Oc1ccccc1C2=C1CC2CCC(C1)N2 [Cpd 11] , value?
Result: 3110

Problem: Can you look up Ki on delta opioid receptor (Rattus norvegicus, UniProt P33533) for Oc1cccc2c1Oc1ccccc1C2=C1CC2CCC(C1)N2 (single isomer, unassigned) [Cpd 8] ?
Result: 0.56

###

Assay target: delta opioid receptor (NG108-15 cell membranes) (Mus musculus)
Construct: NG108-15 cell membranes were purchased from Applied Cell Sciences (Rockville, Md.); host or cells: NG108-15 cell membranes (purchased)
Test name: [35S]GTPγS binding assay in NG108-15 cell membranes (delta opioid)
Format: biochemical
Condition set: read-out: delta GTPγS binding EC50
Hi! Just check whether EC50 is below 50 nM. Below gives yes, equal or above gives no.

Problem: # check: EC50 < 50 nM for Oc1cc(CN2C3CCC2CC(=C2c4ccccc4Oc4c(O)cccc42)C3)ccn1 [Cpd 23]
Result: no

Problem: Please let me know if Oc1cccc2c1Oc1ccccc1C2=C1CC2CCC(C1)N2Cc1cccs1 [Cpd 24] shows EC50 below 50 nM.
Result: yes

Problem: EC50 under 50 nM? Item: Oc1cccc2c1Oc1ccccc1C2=C1CC2CCC(C1)N2Cc1ccncc1 [Cpd 22]
Result: no

Problem: Answer whether the compound Oc1cccc2c1Oc1ccccc1C2=C1CC2CCC(C1)N2Cc1ccccc1 (single isomer, unassigned) [Cpd 46] has EC50 strictly less than 50 nM
Result: yes

Problem: Is 50 nM strictly greater than the compound's reported EC50? compound: Oc1cccc2c1Oc1ccccc1C2=C1CC2CCC(C1)N2Cc1ccoc1 (single isomer, unassigned) [Cpd 58]
Result: yes

Problem: For this compound, is EC50 lower than 50 nM? Oc1cccc2c1Oc1ccccc1C2=C1CC2CCC(C1)N2CC1CC1 [Cpd 26]
Result: no

Problem: EC50 strictly < 50 nM for this compound? Oc1cccc2c1Oc1ccccc1C2=C1CC2CCC(C1)N2Cc1cccnc1 (single isomer, unassigned) [Cpd 50]
Result: no

Problem: Confirm or reject: EC50 of Oc1cccc2c1Oc1ccccc1C2=C1CC2CCC(C1)N2Cc1cccnc1 [Cpd 31] lies strictly below 50 nM
Result: no

Data provenance is patent US20090275610A1.
